The values you see were collected from a protein production outcome set (Wang et al. 2014).

assay_info: label from the status in PepcDB records

[
  {
    "sequence_string": "MKDVIVIGAGPSGSFAAYRLAKAGFTVDILEEHREVGKPVECTGLVSQRVLKYVRTKSIAGTVRGANIFFPNGKSVHIEKDDPTIVLFRDAFDKDVAAMAIGAGSGIRINARALSVTEHDDHVTVRYRENGSIKEEDARIVIGADGINSVVRRDVYGMRQKHVVSTLQYDMASGIEDEDSVNVYLGSQYTHGFFGWAVPGGDIVRVGTGSYKASARPYMDNLSRRFGDNRTLGITGAGIPIRMAERLSSRRTVLVGDAGGIVKPLSGGGIYTGIFSSDVAANYVVEALESDSSEASLRKYDREIRNTIGKELKKDAMIQRIYSRISDRSFNRIYSMISNEKIIDVINRSGDIDYPSTVIIKVLLRNPGILYSMWKLEHHHHHH",
    "protein production": "failed"
  },
  {
    "sequence_string": "MMKNFVCTTCGVQYAASVEEPVSCHICDEERQYVNPKGQSWTTLENLQTDDTYKNEIIKEENGLYSITTKPGFAIGQTAFVVKTESYRLLWDCITYLDETTITKIKELGGLDAIALSHPHYYSTQVEWAETFDVPIYIHEDDKEWVMRPSSRIIYWSGESLQLADGITVHRLGGHFSGGSVLHWEEGNDGKGILLTGDIIQVVADERWVSFMYSYPNLIPLPARKVEEMVNRVKPLQFNRLYNAFHRVVKENANEAVERSAERYIKAIEGKLFHT",
    "protein production": "failed"
  }
]
